Reference source for all entries: ChEMBL document CHEMBL3526109

Test system: Plasma
PROTOCOL_SUMMARY: Drug level in cynomolgus monkey plasma assessed as compound formation treated with [14C]brivanib alaninate at 10 mg/kg, po administered as single dose via gavage measured after 6 hrs by HPLC analysis
Type: ADME, organism-based, Macaca fascicularis
CONDITION_SET: in vivo
Short version: Compound recovery at least 9% is label 1, less is label 0.

- Cc1cc2c(F)c(Oc3ncnn4cc(OCC(=O)O)c(C)c34)ccc2[nH]1: label 0
- Cc1cc2c(F)c(Oc3ncnn4cc(OC[C@@H](C)O[C@@H]5O[C@H](C(=O)O)[C@@H](O)[C@H](O)[C@H]5O)c(C)c34)ccc2[nH]1: label 0
- Cc1c(OC[C@@H](C)OS(=O)(=O)O)cn2ncnc(Oc3ccc4[nH]c(CO)cc4c3F)c12: label 0
- Cc1c(OC[C@@H](C)O)cn2ncnc(Oc3ccc4[nH]c(C(=O)O)cc4c3F)c12: label 0
- Cc1cc2c(F)c(Oc3ncnn4cc(OC[C@@H](C)O)c(C)c34)ccc2[nH]1 [BRIVANIB]: label 1
